# System: Klebsiella pneumoniae
# testProtocol: Antibacterial activity against Klebsiella pneumoniae ATCC 700603 incubated for 18 to 24 hrs by broth microdilution method
# Assay type: functional
# measurementConditions: time 18-24 hrs
quantityMeasured: MIC (µM)
// return numeric value only (unit: µM, not printed)

compound	assayedTarget	measureUnit	MIC
CCCCCCCCCC(=O)N[C@H](CCCN)C(=O)N[C@H](Cc1ccc(O)cc1)C(=O)N[C@H](Cc1c[nH]c2ccccc12)C(=O)N[C@H](CCCN)C(=O)N[C@@H](CCCN)C(=O)NCC(=O)N[C@H](CCCN)C(=O)N[C@@H](Cc1c[nH]c2ccccc12)C(=O)N[C@H](C(=O)N[C@H](C(=O)NCC(=O)N[C@@H](CO)C(=O)O)[C@@H](C)CC)[C@@H](C)O	Klebsiella pneumoniae	µM	4
CCC(C)CCC(=O)N[C@H](CC(N)=O)C(=O)N[C@H](Cc1ccc(C(C)(C)C)cc1)C(=O)N[C@H](Cc1c[nH]c2ccccc12)C(=O)N[C@H](CCCN)C(=O)N[C@@H](CCCN)C(=O)NCC(=O)N[C@H](CCCN)C(=O)N[C@@H](Cc1c[nH]c2ccccc12)C(=O)N[C@@H]1C(=O)N[C@@H]([C@@H](C)CC)C(=O)NCC(=O)N[C@@H](CO)C(=O)O[C@@H]1C (mixture of isomers)	Klebsiella pneumoniae	µM	16

Given item CCC(C)CCC(=O)N[C@H](CC(N)=O)C(=O)N[C@H](Cc1c[nH]c2ccccc12)C(=O)N[C@H](Cc1c[nH]c2ccccc12)C(=O)N[C@H](CCCN)C(=O)N[C@@H](CCCN)C(=O)NCC(=O)N[C@H](CCCN)C(=O)N[C@@H](Cc1c[nH]c2ccccc12)C(=O)N[C@@H]1C(=O)N[C@@H]([C@@H](C)CC)C(=O)NCC(=O)N[C@@H](CO)C(=O)O[C@@H]1C (mixture of isomers) , the value recorded as its MIC is 8

---

Listed here: items and their measured MIC.
# Test system: Klebsiella pneumoniae
# testProtocol: Antibacterial activity against Klebsiella pneumoniae ATCC 700603 incubated for 18 to 24 hrs by broth microdilution method
# Format: functional
# measurementConditions: time 18-24 hrs
Bridge positions count the residues as written; N and C are the ends. Square brackets hold non-standard residues; d marks the D form. Peptide text beside a SMILES is read from it. * marks the point of attachment. Decanoyl = CCCCCCCCCC(=O)*; dOrn = NCCC[C@@H](N)C(=O)O; Orn = NCCC[C@H](N)C(=O)O

Query CCCCCCCCCC(=O)N[C@H](CC(N)=O)C(=O)N[C@H](Cc1ccc(O)cc1)C(=O)N[C@H](Cc1c[nH]c2ccccc12)C(=O)N[C@H](CCCN)C(=O)N[C@@H](CCCN)C(=O)NCC(=O)N[C@H](CCCN)C(=O)N[C@@H](Cc1c[nH]c2ccccc12)C(=O)N[C@@H]1C(=O)N[C@@H]([C@@H](C)CC)C(=O)NCC(=O)N[C@@H](CO)C(=O)O[C@@H]1C (Decanoyl-[dN][dY][dW][dOrn][Orn]G[dOrn]WTIGS; ester 9-C) yields MIC of 2 µM

MIC reading for CCC(C)CCC(=O)N[C@H](CCCN)C(=O)N[C@H](Cc1ccc(O)cc1)C(=O)N[C@H](Cc1c[nH]c2ccccc12)C(=O)N[C@H](CCCN)C(=O)N[C@@H](CCCN)C(=O)NCC(=O)N[C@H](CCCN)C(=O)N[C@@H](Cc1c[nH]c2ccccc12)C(=O)N[C@@H]1C(=O)N[C@@H]([C@@H](C)CC)C(=O)NCC(=O)N[C@@H](CO)C(=O)O[C@@H]1C (mixture of isomers) : 2 µM

For this compound ( CCC(C)CCC(=O)N[C@H](CC(N)=O)C(=O)N[C@H](Cc1ccc(O)cc1)C(=O)N[C@H](Cc1c[nH]c2ccccc12)C(=O)N[C@H](CCCNC(=N)N)C(=O)N[C@@H](CCCNC(=N)N)C(=O)NCC(=O)N[C@H](CCCNC(=N)N)C(=O)N[C@@H](Cc1c[nH]c2ccccc12)C(=O)N[C@@H]1C(=O)N[C@@H]([C@@H](C)CC)C(=O)NCC(=O)N[C@@H](CO)C(=O)O[C@@H]1C (mixture of isomers) ), measured MIC is 4 µM

---

# System: Acinetobacter baumannii
# testProtocol: Antibacterial activity against Acinetobacter baumannii ATCC 19606 incubated for 18 to 24 hrs by broth microdilution method
# Assay type: functional
# measurementConditions: time 18-24 hrs
Bridge positions count the residues as written; N and C are the ends. Square brackets hold non-standard residues; d marks the D form. Peptide text beside a SMILES is read from it. * marks the point of attachment. Decanoyl = CCCCCCCCCC(=O)*; dOrn = NCCC[C@@H](N)C(=O)O; Orn = NCCC[C@H](N)C(=O)O
Quick reference for MIC among some compounds
Report the figure in µM without appending any unit label.

Please review the following examples before continuing.
compound	assayedTarget	quantityMeasured	measured
CCCCCCCCCC(=O)N[C@H](CC(N)=O)C(=O)N[C@H](Cc1ccc(O)cc1)C(=O)N[C@H](Cc1c[nH]c2ccccc12)C(=O)N[C@H](CCCN)C(=O)N[C@@H](CCCN)C(=O)NCC(=O)N[C@H](CCCN)C(=O)N[C@@H](Cc1c[nH]c2ccccc12)C(=O)N[C@@H]1C(=O)N[C@@H]([C@@H](C)CC)C(=O)NCC(=O)N[C@@H](CO)C(=O)O[C@@H]1C (Decanoyl-[dN][dY][dW][dOrn][Orn]G[dOrn]WTIGS; ester 9-C)	Acinetobacter baumannii	MIC	2
CCC(C)CCC(=O)N[C@H](CC(N)=O)C(=O)N[C@H](Cc1ccc2ccccc2c1)C(=O)N[C@H](Cc1c[nH]c2ccccc12)C(=O)N[C@H](CCCN)C(=O)N[C@@H](CCCN)C(=O)NCC(=O)N[C@H](CCCN)C(=O)N[C@@H](Cc1c[nH]c2ccccc12)C(=O)N[C@@H]1C(=O)N[C@@H]([C@@H](C)CC)C(=O)NCC(=O)N[C@@H](CO)C(=O)O[C@@H]1C (mixture of isomers)	Acinetobacter baumannii	MIC	8
CCC(C)CCC(=O)N[C@H](CC(N)=O)C(=O)N[C@H](Cc1c[nH]c2ccccc12)C(=O)N[C@H](Cc1c[nH]c2ccccc12)C(=O)N[C@H](CCCN)C(=O)N[C@@H](CCCN)C(=O)NCC(=O)N[C@H](CCCN)C(=O)N[C@@H](Cc1c[nH]c2ccccc12)C(=O)N[C@@H]1C(=O)N[C@@H]([C@@H](C)CC)C(=O)NCC(=O)N[C@@H](CO)C(=O)O[C@@H]1C (mixture of isomers)	Acinetobacter baumannii	MIC	32
CCC(C)CCC(=O)N[C@H](CC(N)=O)C(=O)N[C@H](C)C(=O)N[C@H](Cc1c[nH]c2ccccc12)C(=O)N[C@H](CCCN)C(=O)N[C@@H](CCCN)C(=O)NCC(=O)N[C@H](CCCN)C(=O)N[C@@H](Cc1c[nH]c2ccccc12)C(=O)N[C@@H]1C(=O)N[C@@H]([C@@H](C)CC)C(=O)NCC(=O)N[C@@H](CO)C(=O)O[C@@H]1C (mixture of isomers)	Acinetobacter baumannii	MIC	32

MIC measured on CCC(C)CCC(=O)N[C@H](CC(N)=O)C(=O)N[C@H](Cc1ccc(C(C)(C)C)cc1)C(=O)N[C@H](Cc1c[nH]c2ccccc12)C(=O)N[C@H](CCCN)C(=O)N[C@@H](CCCN)C(=O)NCC(=O)N[C@H](CCCN)C(=O)N[C@@H](Cc1c[nH]c2ccccc12)C(=O)N[C@@H]1C(=O)N[C@@H]([C@@H](C)CC)C(=O)NCC(=O)N[C@@H](CO)C(=O)O[C@@H]1C (mixture of isomers) = 8

---

# System: Erythrocyte
# testProtocol: Hemolytic activity in mouse red blood cell assessed as hemolysis incubated for 1 hr
# Assay type: toxicity, cell-based
Bridge positions count the residues as written; N and C are the ends. Square brackets hold non-standard residues; d marks the D form. Peptide text beside a SMILES is read from it. * marks the point of attachment. Decanoyl = CCCCCCCCCC(=O)*; dOrn = NCCC[C@@H](N)C(=O)O; Octanoyl = CCCCCCCC(=O)*; Orn = NCCC[C@H](N)C(=O)O
quantityMeasured: MHC (µM)
Give just the number in µM; leave the unit off.

Some solved entries appear below for comparison.
compound	measured
CCC(C)CCC(=O)N[C@H](CC(N)=O)C(=O)N[C@H](Cc1ccc(O)cc1)C(=O)N[C@H](Cc1c[nH]c2ccccc12)C(=O)N[C@H](CCCCN)C(=O)N[C@@H](CCCCN)C(=O)NCC(=O)N[C@H](CCCCN)C(=O)N[C@@H](Cc1c[nH]c2ccccc12)C(=O)N[C@@H]1C(=O)N[C@@H]([C@@H](C)CC)C(=O)NCC(=O)N[C@@H](CO)C(=O)O[C@@H]1C (some centres not stated)	128
CCCCCCCCCC(=O)N[C@H](CCCN)C(=O)N[C@H](Cc1ccc(O)cc1)C(=O)N[C@H](Cc1c[nH]c2ccccc12)C(=O)N[C@H](CCCN)C(=O)N[C@@H](CCCN)C(=O)NCC(=O)N[C@H](CCCN)C(=O)N[C@@H](Cc1c[nH]c2ccccc12)C(=O)N[C@@H]1C(=O)N[C@@H]([C@@H](C)CC)C(=O)NCC(=O)N[C@@H](CO)C(=O)O[C@@H]1C	128
CCC(C)CCC(=O)N[C@H](CC(N)=O)C(=O)N[C@H](Cc1ccc(O)cc1)C(=O)N[C@H](Cc1c[nH]c2ccccc12)C(=O)N[C@H](CCCN)C(=O)N[C@@H](C)C(=O)NCC(=O)N[C@H](CCCN)C(=O)N[C@@H](Cc1c[nH]c2ccccc12)C(=O)N[C@@H]1C(=O)N[C@@H]([C@@H](C)CC)C(=O)NCC(=O)N[C@@H](CO)C(=O)O[C@@H]1C (mixture of isomers)	64
CCCCCCCC(=O)N[C@H](CC(N)=O)C(=O)N[C@H](Cc1ccc(O)cc1)C(=O)N[C@H](Cc1c[nH]c2ccccc12)C(=O)N[C@H](CCCN)C(=O)N[C@@H](CCCN)C(=O)NCC(=O)N[C@H](CCCN)C(=O)N[C@@H](Cc1c[nH]c2ccccc12)C(=O)N[C@@H]1C(=O)N[C@@H]([C@@H](C)CC)C(=O)NCC(=O)N[C@@H](CO)C(=O)O[C@@H]1C (Octanoyl-[dN][dY][dW][dOrn][Orn]G[dOrn]WTIGS; ester 9-C)	64
CCC(C)CCC(=O)N[C@H](CCCN)C(=O)N[C@H](Cc1ccc(O)cc1)C(=O)N[C@H](Cc1c[nH]c2ccccc12)C(=O)N[C@H](CCCN)C(=O)N[C@@H](CCCN)C(=O)N[C@@H](CCCN)C(=O)N[C@H](CCCN)C(=O)N[C@@H](Cc1c[nH]c2ccccc12)C(=O)N[C@@H]1C(=O)N[C@@H]([C@@H](C)CC)C(=O)NCC(=O)N[C@@H](CO)C(=O)O[C@@H]1C (some centres not stated)	128

Sample CCCCCCCCCC(=O)N[C@H](CC(N)=O)C(=O)N[C@H](Cc1ccc(O)cc1)C(=O)N[C@H](Cc1c[nH]c2ccccc12)C(=O)N[C@H](CCCN)C(=O)N[C@@H](CCCN)C(=O)NCC(=O)N[C@H](CCCN)C(=O)N[C@@H](Cc1c[nH]c2ccccc12)C(=O)N[C@@H]1C(=O)N[C@@H]([C@@H](C)CC)C(=O)NCC(=O)N[C@@H](CO)C(=O)O[C@@H]1C (Decanoyl-[dN][dY][dW][dOrn][Orn]G[dOrn]WTIGS; ester 9-C) ; MHC observed: 8

So for CCC(C)CCC(=O)N[C@H](CC(N)=O)C(=O)N[C@H](Cc1ccc(O)cc1)C(=O)N[C@H](Cc1c[nH]c2ccccc12)C(=O)N[C@H](CCCN)C(=O)N[C@@H](CCCN)C(=O)N[C@@H](CCCN)C(=O)N[C@H](CCCN)C(=O)N[C@@H](Cc1c[nH]c2ccccc12)C(=O)N[C@@H]1C(=O)N[C@@H]([C@@H](C)CC)C(=O)NCC(=O)N[C@@H](CO)C(=O)O[C@@H]1C (mixture of isomers) , the logged MHC turned out to be 128

Data origin, for the record: ChEMBL document CHEMBL5512645
